// melting point lookup, one value per entry

Known melting point results, listed for orientation:
molecule: COc1ccc(C(=O)Nc2ccc(-c3ccc(CO)c(O)c3)cc2)cc1CCCN(C)C
measured: 171 to 173 °C
--
molecule: COc1ccc(C(=O)Nc2ccc(-c3ccc(C(C)=O)cc3)cc2)cc1CCN(C)C
measured: 236 to 240 °C
--
molecule: COc1ccc(C(=O)Nc2ccc(-c3ccc(-c4nc(C)no4)cc3C)cc2)cc1CCCN(C)C
measured: 166 to 167 °C
--
molecule: COc1ccc(C(=O)Nc2ccc(-c3ccc(CO)cc3C)c(C)c2)cc1CCCN(C)C
measured: 68 to 70 °C
--
molecule: COc1ccc(C(=O)Nc2ccc(-c3ccccc3C(C)O)cc2)cc1CCCN(C)C.Cl (stereo not shown)
measured: 224 to 227 °C

Item COc1ccc(C(=O)Nc2ccc(-c3ccc(C(C)=O)cc3)c(C)c2)cc1CCCN(C)C.Cl has what recorded melting point?
264 to 266 °C

Would you kindly share the measured melting point for CCc1ccc(-c2ccc(NC(=O)c3ccc(OC)c(CCCN(C)C)c3)cc2)cc1 ?
200 to 202 °C
